# Test system: 377384-186-R-J1-PDC complex spheroid viability
# measurementDescription: Anticancer human tumor 377384-186-R-J1-PDC patient-derived pancreatic carcinoma cell line growth inhibition [CLK]
# conditionParameters: second compound 10 µM; first compound 0.1 µM; stronger effect = lower value
Each record's viability, T/C is compared with category 1 = under 0.5%, category 2 = from 0.5% up to 2%, category 3 = 2% and over to give its class.

Problem: Into which bin does this molecule go? COc1cccc2c1C(=O)c1c(O)c3c(c(O)c1C2=O)CC(O)(C(=O)CO)CC3OC1CC(N)C(O)C(C)O1 (stereo not given) + CNC(=O)c1ccc(Nc2nc(OC3CCCC3)c3c(-c4ccc5nc(C)oc5c4)c[nH]c3n2)c(OC)c1
Result: category 3

Problem: Which bin should I file COc1ccc([C@@H](O)c2cc(-c3ncnc4cc(N5CCOCC5)ccc34)c(F)cc2Cl)nn1 + CN1CCN(c2cc(C(=O)Nc3cc4cc(-c5cnn(C)c5)ccc4cn3)ccn2)CC1 under?
Result: category 1

Problem: Pick a category. Item: CCCS(=O)(=O)Nc1ccc(F)c(C(=O)c2c[nH]c3ncc(-c4ccc(Cl)cc4)cc23)c1F + CN1CCN(c2cc(C(=O)Nc3cc4cc(-c5cnn(C)c5)ccc4cn3)ccn2)CC1
Result: category 2

Problem: Kindly identify the class of COC1C=CCC(C)C(C)S(=O)(=O)NC(=O)c2ccc3c(c2)N(CC2CCC21)CC1(CCCc2cc(Cl)ccc21)CO3 (stereo not given) + CN1CCN(c2cc(C(=O)Nc3cc4cc(-c5cnn(C)c5)ccc4cn3)ccn2)CC1 .
Result: category 2

Problem: # classify by viability, T/C band: CC1COCCN1c1cc(C2(S(C)(=N)=O)CC2)nc(-c2ccnc3[nH]ccc23)n1 (stereo not given) + CNC(=O)c1ccc(Nc2nc(OC3CCCC3)c3c(-c4ccc5nc(C)oc5c4)c[nH]c3n2)c(OC)c1
Result: category 3

----------
Hi there, I'd appreciate the recorded IC50 for every entry that follows.
# Test system: 377384-186-R-J1-PDC complex spheroid viability
# measurementDescription: Anticancer human tumor 377384-186-R-J1-PDC cell line growth inhibition [CLK];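 also: spheroids exposed to agents for 7 days before reading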
# conditionParameters: curve of first compound; second compound 1 µM

Examples with their reported IC50 follow.
{"columns": ["compound", "IC50"],
 "data": [
  ["COC1C=CCC(C)C(C)S(=O)(=O)NC(=O)c2ccc3c(c2)N(CC2CCC21)CC1(CCCc2cc(Cl)ccc21)CO3 (stereo not given) + CNC(=O)c1ccc(Nc2nc(OC3CCCC3)c3c(-c4ccc5nc(C)oc5c4)c[nH]c3n2)c(OC)c1", "< 31.6 nM"],
  ["Cn1ncnc1[C@H]1c2n[nH]c(=O)c3cc(F)cc(c23)N[C@@H]1c1ccc(F)cc1 + CN1CCN(c2cc(C(=O)Nc3cc4cc(-c5cnn(C)c5)ccc4cn3)ccn2)CC1", "< 0.316 nM"],
  ["CC(CO)NC(=O)c1cc(-c2ccc(Cl)cc2)nn(-c2cnn(C)c2)c1=O (stereo not given) + CN1CCN(c2cc(C(=O)Nc3cc4cc(-c5cnn(C)c5)ccc4cn3)ccn2)CC1", "< 31.6 nM"],
  ["CCCS(=O)(=O)Nc1ccc(F)c(C(=O)c2c[nH]c3ncc(-c4ccc(Cl)cc4)cc23)c1F + CN1CCN(c2cc(C(=O)Nc3cc4cc(-c5cnn(C)c5)ccc4cn3)ccn2)CC1", "< 31.6 nM"],
  ["CCc1c2c(nc3ccc(O)cc13)-c1cc3c(c(=O)n1C2)COC(=O)[C@]3(O)CC + CNC(=O)c1ccc(Nc2nc(OC3CCCC3)c3c(-c4ccc5nc(C)oc5c4)c[nH]c3n2)c(OC)c1", "< 3.16 nM"],
  ["Nc1ccccc1NC(=O)c1ccc(CNC(=O)OCc2cccnc2)cc1 + CNC(=O)c1ccc(Nc2nc(OC3CCCC3)c3c(-c4ccc5nc(C)oc5c4)c[nH]c3n2)c(OC)c1", "< 31.6 nM"],
  ["COc1cccc2c1C(=O)c1c(O)c3c(c(O)c1C2=O)CC(O)(C(=O)CO)CC3OC1CC(N)C(O)C(C)O1 (stereo not given) + CNC(=O)c1ccc(Nc2nc(OC3CCCC3)c3c(-c4ccc5nc(C)oc5c4)c[nH]c3n2)c(OC)c1", "< 31.6 nM"],
  ["O=c1[nH]cc(F)c(=O)[nH]1 + CN1CCN(c2cc(C(=O)Nc3cc4cc(-c5cnn(C)c5)ccc4cn3)ccn2)CC1", "< 31.6 nM"],
  ["O=C(c1cc(Cc2n[nH]c(=O)c3ccccc23)ccc1F)N1CCN(C(=O)C2CC2)CC1 + CNC(=O)c1ccc(Nc2nc(OC3CCCC3)c3c(-c4ccc5nc(C)oc5c4)c[nH]c3n2)c(OC)c1", "< 31.6 nM"]
]}

Consider the record given below.
Problem: Which IC50 is listed for CC1(C)CCC(CN2CCN(c3ccc(C(=O)NS(=O)(=O)c4ccc(NCC5CCOCC5)c([N+](=O)[O-])c4)c(Oc4cnc5[nH]ccc5c4)c3)CC2)=C(c2ccc(Cl)cc2)C1 + CN1CCN(c2cc(C(=O)Nc3cc4cc(-c5cnn(C)c5)ccc4cn3)ccn2)CC1 ?
Result: < 31.6 nM

----------
Kindly supply the reported IC50 values for the records listed here.
# System: 377384-186-R-J1-PDC complex spheroid viability
# measurementDescription: Anticancer human tumor 377384-186-R-J1-PDC cell line growth inhibition [CLK];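 also: spheroids exposed to agents for 7 days before reading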
# conditionParameters: curve of first compound; second compound 1 µM

{"columns": ["compound", "IC50"],
 "data": [
  ["C=CC(=O)N1CCN(c2nc(=O)n(-c3c(C)ccnc3C(C)C)c3nc(-c4c(O)cccc4F)c(F)cc23)C(C)C1 (stereo not given) + CNC(=O)c1ccc(Nc2nc(OC3CCCC3)c3c(-c4ccc5nc(C)oc5c4)c[nH]c3n2)c(OC)c1", "< 0.0316 µM"],
  ["C=C(F)C(=O)N1CCN(c2nc(OCC3CCCN3C)nc3c2CCN(c2cccc4cccc(Cl)c24)C3)CC1CC#N (stereo not given) + CNC(=O)c1ccc(Nc2nc(OC3CCCC3)c3c(-c4ccc5nc(C)oc5c4)c[nH]c3n2)c(OC)c1", "< 0.0316 µM"],
  ["NC(=O)C(=Cn1cnc(-c2cc(C(F)(F)F)cc(C(F)(F)F)c2)n1)c1cncnc1 + CNC(=O)c1ccc(Nc2nc(OC3CCCC3)c3c(-c4ccc5nc(C)oc5c4)c[nH]c3n2)c(OC)c1", "< 0.00949 µM"],
  ["CC(CO)NC(=O)c1cc(-c2ccc(Cl)cc2)nn(-c2cnn(C)c2)c1=O (stereo not given) + CNC(=O)c1ccc(Nc2nc(OC3CCCC3)c3c(-c4ccc5nc(C)oc5c4)c[nH]c3n2)c(OC)c1", "< 0.0316 µM"]
]}

Field: next compound
Problem: # IC50 lookup, item COc1ccc([C@@H](O)c2cc(-c3ncnc4cc(N5CCOCC5)ccc34)c(F)cc2Cl)nn1 + CN1CCN(c2cc(C(=O)Nc3cc4cc(-c5cnn(C)c5)ccc4cn3)ccn2)CC1
Result: < 0.0316 µM

----------
# Test system: 377384-186-R-J1-PDC complex spheroid viability
# measurementDescription: Anticancer human tumor 377384-186-R-J1-PDC cell line growth inhibition [CLK]; active means viability on the fitted dose curve at most 10% of control; inactive means the rest;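 also: spheroids exposed to agents for 7 days before reading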
# conditionParameters: second compound 10 µM; first compound 3.16 µM
Entry note: the call must match one of active, inactive

Before answering, review these 6 worked examples.
{"columns": ["compound", "assignedCategory"],
 "data": [
  ["O=c1[nH]cc(F)c(=O)[nH]1 + CN1CCN(c2cc(C(=O)Nc3cc4cc(-c5cnn(C)c5)ccc4cn3)ccn2)CC1", "active"],
  ["CC(CO)NC(=O)c1cc(-c2ccc(Cl)cc2)nn(-c2cnn(C)c2)c1=O (stereo not drawn) + CNC(=O)c1ccc(Nc2nc(OC3CCCC3)c3c(-c4ccc5nc(C)oc5c4)c[nH]c3n2)c(OC)c1", "inactive"],
  ["C=CC(=O)N1CCN(c2nc(=O)n(-c3c(C)ccnc3C(C)C)c3nc(-c4c(O)cccc4F)c(F)cc23)C(C)C1 (stereo not drawn) + CNC(=O)c1ccc(Nc2nc(OC3CCCC3)c3c(-c4ccc5nc(C)oc5c4)c[nH]c3n2)c(OC)c1", "inactive"],
  ["Nc1ccn(C2OC(CO)C(O)C2(F)F)c(=O)n1 (stereo not drawn) + CN1CCN(c2cc(C(=O)Nc3cc4cc(-c5cnn(C)c5)ccc4cn3)ccn2)CC1", "active"],
  ["CC1COCCN1c1cc(C2(S(C)(=N)=O)CC2)nc(-c2ccnc3[nH]ccc23)n1 (stereo not drawn) + CNC(=O)c1ccc(Nc2nc(OC3CCCC3)c3c(-c4ccc5nc(C)oc5c4)c[nH]c3n2)c(OC)c1", "inactive"],
  ["O=C(c1cc(Cc2n[nH]c(=O)c3ccccc23)ccc1F)N1CCN(C(=O)C2CC2)CC1 + CN1CCN(c2cc(C(=O)Nc3cc4cc(-c5cnn(C)c5)ccc4cn3)ccn2)CC1", "active"]
]}

Problem: Status in this test for Nc1ccn(C2OC(CO)C(O)C2(F)F)c(=O)n1 (stereo not drawn) + CNC(=O)c1ccc(Nc2nc(OC3CCCC3)c3c(-c4ccc5nc(C)oc5c4)c[nH]c3n2)c(OC)c1 ?
Result: active

Problem: Which result was noted for this compound in the test: COc1cccc2c1C(=O)c1c(O)c3c(c(O)c1C2=O)CC(O)(C(=O)CO)CC3OC1CC(N)C(O)C(C)O1 (stereo not drawn) + CNC(=O)c1ccc(Nc2nc(OC3CCCC3)c3c(-c4ccc5nc(C)oc5c4)c[nH]c3n2)c(OC)c1
Result: active

Problem: Test call for this compound, please: COc1ccc([C@@H](O)c2cc(-c3ncnc4cc(N5CCOCC5)ccc34)c(F)cc2Cl)nn1 + CN1CCN(c2cc(C(=O)Nc3cc4cc(-c5cnn(C)c5)ccc4cn3)ccn2)CC1
Result: active
